TRZAWR herbicidal rating overview
# System: TRZAWR (Wheat, Winter, cv Riband)
# assay details: Postemergence herbicidal evaluation
# Format: in vivo, Triticum aestivum
# recorded conditions: postemergence, rate 0.0313 kg/ha
Number, no unit, nothing else.

Below, each entry is followed by its recorded TRZAWR herbicidal rating result.
compound: CCOC(=O)CN1C(=O)C(CC(=O)NO)S/C1=N/c1cc(-n2c(=O)cc(C(F)(F)F)n(C)c2=O)c(F)cc1Cl (centres unmarked)
TRZAWR herbicidal rating: 2.5
//
compound: C=CCN1C(=O)C(CC(=O)OCCF)SC1=Nc1cc(-n2c(=O)cc(C(F)(F)F)n(C)c2=O)c(F)cc1Cl (centres unmarked)
TRZAWR herbicidal rating: 7.0
//
compound: C=CCN1C(=O)CSC1=Nc1cc(N2C(=O)C3=C(CCCC3)C2=O)c(F)cc1Cl
TRZAWR herbicidal rating: 2.5
//
compound: CCOC(=O)CN1C(=O)C(CC(=O)NOC)SC1=Nc1cc(-n2c(=O)cc(C(F)(F)F)n(C)c2=O)c(F)cc1Cl (centres unmarked)
TRZAWR herbicidal rating: 4.0

Attention now shifts to the item below.
Please tell me: TRZAWR herbicidal rating of CCOC(=O)CN1C(=O)CSC1=Nc1cc(-n2c(=O)cc(C(F)(F)F)n(C)c2=O)c(F)cc1Cl , system TRZAWR (Wheat, Winter, cv Riband)?
5.1

###

Herbicidal rating AMBEL overview
# Tested on: AMBEL (Ragweed, Common)
# assay details: Postemergence herbicidal evaluation
# Format: in vivo, Ambrosia artemisifolia
# recorded conditions: postemergence, rate 0.0625 kg/ha
Number, no unit, nothing else.

Below, each entry is followed by its recorded Herbicidal rating AMBEL result.
molecule: Cc1ccccc1CN1C(=O)CSC1=Nc1cc(-n2c(=O)cc(C(F)(F)F)n(C)c2=O)c(F)cc1Cl [Compound 129]
Herbicidal rating AMBEL: 9.0
//
molecule: Cn1c(C(F)(F)F)cc(=O)n(-c2cc(N=C3SCC(=O)N3C3CCCC3)c(Cl)cc2F)c1=O [Compound 166]
Herbicidal rating AMBEL: 6.0
//
molecule: Cn1c(C(F)(F)F)cc(=O)n(-c2cc(N=C3SCC(=O)N3Cc3ccccn3)c(Cl)cc2F)c1=O [Compound 131]
Herbicidal rating AMBEL: 9.0

# Herbicidal rating AMBEL lookup, item CCOC(=O)CN1C(=O)C(C(=O)OC)SC1=Nc1cc(-n2c(=O)cc(C(F)(F)F)n(C)c2=O)c(F)cc1Cl (stereo not drawn) [Compound 128]
9.0

Another molecule to check: CCOC(=O)CN1C(=O)C(OC)SC1=Nc1cc(-n2c(=O)cc(C(F)(F)F)n(C)c2=O)c(F)cc1Cl (stereo not drawn) [Compound 160]
9.0

Another molecule to check: Cn1c(C(F)(F)F)cc(=O)n(-c2cc(N=C3SCC(=O)N3Cc3ccc(F)cc3)c(Cl)cc2F)c1=O [Compound 151]
9.0

###

# Tested on: AMBEL (Ragweed, Common)
# assay details: Preemergence herbicidal evaluation
# Assay type: in vivo, Ambrosia artemisifolia
# recorded conditions: rate 0.2500 kg/ha; rated 4-5 weeks after treatment
Preemergence herbicidal rating AMBEL overview

Below, each entry is followed by its recorded Preemergence herbicidal rating AMBEL result.
compound: CCOC(=O)CN1C(=O)C(CCO)S/C1=N/c1cc(-n2c(=O)cc(C(F)(F)F)n(C)c2=O)c(F)cc1Cl (stereo not drawn)
Preemergence herbicidal rating AMBEL: 9.0

compound: CCOC(=O)CN1C(=O)C(CC(=O)OC)S/C1=N/c1cc(-n2c(=O)cc(C(F)(F)F)n(C)c2=O)c(F)cc1Cl (stereo not drawn)
Preemergence herbicidal rating AMBEL: 9.0

compound: C=CCOC(=O)CC1SC(=Nc2cc(-n3c(=O)cc(C(F)(F)F)n(C)c3=O)c(F)cc2Cl)N(CC=C)C1=O (stereo not drawn)
Preemergence herbicidal rating AMBEL: 9.0

# Preemergence herbicidal rating AMBEL lookup, item CCOC(=O)CN1C(=O)C(CC(=O)O)SC1=Nc1cc(-n2c(=O)cc(C(F)(F)F)n(C)c2=O)c(Cl)cc1Cl (stereo not drawn)
9.0

Another compound to check: COC(=O)COC(=O)CN1C(=O)CSC1=Nc1cc(-n2c(=O)cc(C(F)(F)F)n(C)c2=O)c(F)cc1Cl
1.0

Another compound to check: CCOC(=O)CN1CC(=O)N(CC(=O)OCC)C1=Nc1cc(-n2c(=O)cc(C(F)(F)F)n(C)c2=O)c(F)cc1Cl
7.0

###

# System: ECHORC (Watergrass (Calif.))
# assay details: Postemergence weed control under flooded paddy conditions
# Assay type: in vivo, Echinochloa oryzoides
# recorded conditions: Rate 0.0313 kg/ha, postemergence weeds, rated 3 to 4 weeks after treatment
Herbicidal rating ECHORC overview
Number, no unit, nothing else.

Below, each entry is followed by its recorded Herbicidal rating ECHORC result.
compound: CN1C(=O)C(CC(=O)OCCF)SC1=Nc1cc(-n2c(=O)cc(C(F)(F)F)n(C)c2=O)c(F)cc1Cl (stereo not shown)
Herbicidal rating ECHORC: 0.0
//
compound: CC(C)OC(=O)CC1SC(=Nc2cc(-n3c(=O)cc(C(F)(F)F)n(C)c3=O)c(F)cc2Cl)N(C)C1=O (stereo not shown)
Herbicidal rating ECHORC: 3.0
//
compound: C=CCOC(=O)CC1SC(=Nc2cc(-n3c(=O)cc(C(F)(F)F)n(C)c3=O)c(F)cc2Cl)N(CC=C)C1=O (stereo not shown)
Herbicidal rating ECHORC: 5.0

# Herbicidal rating ECHORC lookup, item C=CCN1C(=O)C(CC(=O)NS(C)(=O)=O)SC1=Nc1cc(-n2c(=O)cc(C(F)(F)F)n(C)c2=O)c(F)cc1Cl (stereo not shown)
0.0

###

# System: IPOHE (Morningglory, Ivyleaf)
# assay details: Preemergence herbicidal evaluation
# Format: in vivo, Ipomoea hederacea
# recorded conditions: rate 0.2500 kg/ha; rated 4-5 weeks after treatment
Preemergence herbicidal rating IPOHE overview
Number, no unit, nothing else.

Below, each entry is followed by its recorded Preemergence herbicidal rating IPOHE result.
molecule: CN1C(=O)C(CC(=O)O)SC1=Nc1cc(-n2c(=O)cc(C(F)(F)F)n(C)c2=O)c(F)cc1Cl (stereo not drawn)
target under test: IPOHE (Morningglory, Ivyleaf)
Preemergence herbicidal rating IPOHE: 9.0
//
molecule: CCOC(=O)CN1C(=O)C(Cc2ccccc2OC)SC1=Nc1cc(-n2c(=O)cc(C(F)(F)F)n(C)c2=O)c(F)cc1Cl (stereo not drawn)
target under test: IPOHE (Morningglory, Ivyleaf)
Preemergence herbicidal rating IPOHE: 0.0
//
molecule: CC(C)C[C@@H](C(=O)O)N1C(=O)CSC1=Nc1cc(-n2c(=O)cc(C(F)(F)F)n(C)c2=O)c(F)cc1Cl
target under test: IPOHE (Morningglory, Ivyleaf)
Preemergence herbicidal rating IPOHE: 9.0
//
molecule: COC(=O)CCCN1C(=O)CSC1=Nc1cc(-n2c(=O)cc(C(F)(F)F)n(C)c2=O)c(F)cc1Cl
target under test: IPOHE (Morningglory, Ivyleaf)
Preemergence herbicidal rating IPOHE: 4.0
//
molecule: C[C@@H](C(=O)OC(C)(C)C)N1C(=O)CSC1=Nc1cc(-n2c(=O)cc(C(F)(F)F)n(C)c2=O)c(F)cc1Cl
target under test: IPOHE (Morningglory, Ivyleaf)
Preemergence herbicidal rating IPOHE: 2.0
//
molecule: CCOC(=O)CN1C(=O)C(CCO)S/C1=N/c1cc(-n2c(=O)cc(C(F)(F)F)n(C)c2=O)c(F)cc1Cl (stereo not drawn)
target under test: IPOHE (Morningglory, Ivyleaf)
Preemergence herbicidal rating IPOHE: 9.0
//
molecule: CCOC(=O)CN1C(=O)C(C(=O)OC)SC1=Nc1cc(-n2c(=O)cc(C(F)(F)F)n(C)c2=O)c(F)cc1Cl (stereo not drawn)
target under test: IPOHE (Morningglory, Ivyleaf)
Preemergence herbicidal rating IPOHE: 7.0
//
molecule: Cn1c(C(F)(F)F)cc(=O)n(-c2cc(N=C3NC(=O)CS3)c(Cl)cc2F)c1=O
target under test: IPOHE (Morningglory, Ivyleaf)
Preemergence herbicidal rating IPOHE: 9.0
//
molecule: CCOC(=O)[C@H](Cc1ccccc1)N1C(=O)CSC1=Nc1cc(-n2c(=O)cc(C(F)(F)F)n(C)c2=O)c(F)cc1Cl
target under test: IPOHE (Morningglory, Ivyleaf)
Preemergence herbicidal rating IPOHE: 9.0
//
molecule: Cc1ccccc1CN1C(=O)CSC1=Nc1cc(-n2c(=O)cc(C(F)(F)F)n(C)c2=O)c(F)cc1Cl
target under test: IPOHE (Morningglory, Ivyleaf)
Preemergence herbicidal rating IPOHE: 9.0

# Preemergence herbicidal rating IPOHE lookup, item CCOC(=O)CN1C(=O)C(CC(=O)Nc2ccccc2)SC1=Nc1cc(-n2c(=O)cc(C(F)(F)F)n(C)c2=O)c(F)cc1Cl (stereo not drawn)
6.0

Another molecule to check: Cn1c(C(F)(F)F)cc(=O)n(-c2cc(/N=C3/SC(CC(=O)O)C(=O)N3CC(=O)O)c(Cl)cc2F)c1=O (stereo not drawn)
0.0

Origin of values: patent US20020137929A1
